Origin of measurements: paper PMC5297880

# Assay type: in vivo, human
# reportedConditions: both, human, plasma, oral, Cmax, Part 2, lopinavir/ritonavir alone, day 13, mean (SD)
valueKind: Cmax (ng/mL)

{"chemicalSmiles": "CC(C)c1nc(CN(C)C(=O)N[C@H](C(=O)N[C@@H](Cc2ccccc2)C[C@H](O)[C@H](Cc2ccccc2)NC(=O)OCc2cncs2)C(C)C)cs1", "unitSpec": "ng/mL", "readoutValue": 1200}

====

# Type: in vivo, human
# reportedConditions: both, human, plasma, oral, AUCτ, Part 2, lopinavir/ritonavir 400/100 mg alone, day 13 (12 hours), plasma, mean (SD), n = 18
valueKind: AUC (ng·h/mL)

{"compound": "Cc1cccc(C)c1OCC(=O)N[C@@H](Cc1ccccc1)[C@@H](O)C[C@H](Cc1ccccc1)NC(=O)[C@H](C(C)C)N1CCCNC1=O [Lopinavir, lopinavir]", "valueKind": "AUC", "readoutValue": 91000}
{"compound": "CC(C)c1nc(CN(C)C(=O)N[C@H](C(=O)N[C@@H](Cc2ccccc2)C[C@H](O)[C@H](Cc2ccccc2)NC(=O)OCc2cncs2)C(C)C)cs1 [Ritonavir, ritonavir]", "valueKind": "AUC", "readoutValue": 5500}

====

Here the recorded AUC is given for each entry.
# Type: in vivo, human
# reportedConditions: both, human, plasma, oral, AUCτ, Part 2, lopinavir/ritonavir 400/100 mg + isavuconazole 200 mg, day 13 (12 hours), mean (SD), n = 16
valueKind: AUC

{"compound": "Cc1cccc(C)c1OCC(=O)N[C@@H](Cc1ccccc1)[C@@H](O)C[C@H](Cc1ccccc1)NC(=O)[C@H](C(C)C)N1CCCNC1=O [Lopinavir, lopinavir]", "valueKind": "AUC", "readoutValue": "73300 ng·h/mL"}
{"compound": "CC(C)c1nc(CN(C)C(=O)N[C@H](C(=O)N[C@@H](Cc2ccccc2)C[C@H](O)[C@H](Cc2ccccc2)NC(=O)OCc2cncs2)C(C)C)cs1 [Ritonavir, ritonavir]", "valueKind": "AUC", "readoutValue": "4000 ng·h/mL"}

====

# Type: in vivo, human
# reportedConditions: both, human, plasma, oral, AUCτ, Part 2, isavuconazole 200 mg + lopinavir/ritonavir 400/100 mg BID, day 13 (24 hours), mean (SD), n = 16

{"chemicalSmiles": "C[C@@H](c1nc(-c2ccc(C#N)cc2)cs1)[C@](O)(Cn1cncn1)c1cc(F)ccc1F", "AUC / µg·h/mL": 222}

====

# Assay type: in vivo, human
# reportedConditions: both, human, plasma, oral, 100 mg

{"chemicalSmiles": "C[C@@H](c1nc(-c2ccc(C#N)cc2)cs1)[C@](O)(Cn1cncn1)c1cc(F)ccc1F", "Tmax": "3 h"}

====

# Assay type: in vivo, human
# reportedConditions: both, human, plasma, oral, Cmax, Part 2, lopinavir/ritonavir + isavuconazole, day 13, mean (SD)

{"molecule": "CC(C)c1nc(CN(C)C(=O)N[C@H](C(=O)N[C@@H](Cc2ccccc2)C[C@H](O)[C@H](Cc2ccccc2)NC(=O)OCc2cncs2)C(C)C)cs1 [Ritonavir, ritonavir]", "unitSpec": "ng/mL", "Cmax": 800}

====

# Type: in vivo, human
# reportedConditions: both, human, plasma, oral, 200 mg

{"chemicalSmiles": "C[C@@H](c1nc(-c2ccc(C#N)cc2)cs1)[C@](O)(Cn1cncn1)c1cc(F)ccc1F", "Tmax, h": 3}
